Measured values drawn from ChEMBL document CHEMBL1157539 for this set.

System: Plasmodium falciparum
Test: GSK_TCMDC: Inhibition of Plasmodium falciparum 3D7 in whole red blood cells, using parasite LDH activity as an index of growth. Test compounds present at 2uM
Assay type: functional
Below, each entry is listed alongside its reported Inhibition.

{"compound": "Cc1nnsc1C(=O)Nc1cccc(-c2csc(-c3nc4ccccc4[nH]3)c2)c1", "measured_on": "Plasmodium falciparum", "Inhibition": "94%"}
{"compound": "COc1ccc(C2CC(c3cccs3)=NN2C(=O)COc2cccc3c2CCCC3O)cc1OC (stereo not given)", "measured_on": "Plasmodium falciparum", "Inhibition": "93%"}
{"compound": "CC1CN(Cc2ccc(-c3ccc(-c4nc5ccccc5[nH]4)cc3)cc2)CC(C)O1.O=C(O)C(F)(F)F (stereo not given)", "measured_on": "Plasmodium falciparum", "Inhibition": "98%"}
{"compound": "O=C(COc1ccccc1)NC1CCN(c2ccnc3cc(Cl)ccc23)C1.O=C(O)C(F)(F)F (stereo not given)", "measured_on": "Plasmodium falciparum", "Inhibition": "100%"}
{"compound": "O=C(O)C(F)(F)F.c1ccc2[nH]c(-c3ccc(-c4ccc(CN5CCN(c6ccncc6)CC5)cc4)cc3)nc2c1", "measured_on": "Plasmodium falciparum", "Inhibition": "100%"}
